Hey, just so you know, these numbers are from patent US12304901B2.

- EXPERIMENT_NOTES: Mouse intravenous (IV) pharmacokinetic study of plasma and brain exposure with bioanalysis
- Format: in vivo
- CONDITION_PARAMETERS: plasma, mouse NMRI male, IV 1 mg/kg, mean n=3
REPORTED_METRIC: clearance (mL/min/kg)
Answer with a number only, understood to be in mL/min/kg.

Query: clearance; subject: CO[C@H]1CCCN(c2ccc(-c3cc4cc(O)ccc4[nH]3)c(F)n2)C1
62.4

###

- EXPERIMENT_NOTES: Mouse intravenous (IV) pharmacokinetic study of plasma and brain exposure with bioanalysis
- Assay type: in vivo
- CONDITION_PARAMETERS: plasma, mouse NMRI male, IV 1 mg/kg, mean n=3
REPORTED_METRIC: Tmax (min)
Answer with a number only, understood to be in min.

Query: Tmax; subject: CO[C@H]1CCCN(c2ccc(-c3cc4cc(O)ccc4[nH]3)c(F)n2)C1
1.8

###

- EXPERIMENT_NOTES: Mouse intravenous (IV) pharmacokinetic study of plasma and brain exposure with bioanalysis
- Assay type: in vivo
- CONDITION_PARAMETERS: male, NMRI, mouse, brain, iv, 1 mg/kg, brain, mouse NMRI male, IV 1 mg/kg, mean n=3; read-out: t1/2 (converted)
REPORTED_METRIC: half-life (min)
Answer with a number only, understood to be in min.

Query: half-life; subject: CO[C@H]1CCCN(c2ccc(-c3cc4cc(O)ccc4[nH]3)c(F)n2)C1 [Example Compound 1]
18

###

- EXPERIMENT_NOTES: Mouse intravenous (IV) pharmacokinetic study of plasma and brain exposure with bioanalysis
- Format: in vivo
- CONDITION_PARAMETERS: plasma, mouse NMRI male, IV 1 mg/kg, mean n=3
REPORTED_METRIC: C0 (ng/mL)
Answer with a number only, understood to be in ng/mL.

Query: C0; subject: CO[C@H]1CCCN(c2ccc(-c3cc4cc(O)ccc4[nH]3)c(F)n2)C1 [Example Compound 1]
884

###

- EXPERIMENT_NOTES: Mouse intravenous (IV) pharmacokinetic study of plasma and brain exposure with bioanalysis
- Type: in vivo
- CONDITION_PARAMETERS: plasma, mouse NMRI male, IV 1 mg/kg, mean n=3
- Method: A pharmacokinetic study of plasma and brain exposure in mice after IV administration of Example Compound 1 or Comparative Example Compound 1 was carried out following the protocol described in Loryan, I., et al, Pharm Res (2014) 31: 2203-2219. Comparative Example Compound 1 is 2-{2-Fluoro-6-[4-(hydroxymethyl)piperidin-1-yl]pyridin-3-yl}-1H-indol-5-ol, and has the following structure: […]
REPORTED_METRIC: MRT (min)
Answer with a number only, understood to be in min.

Query: MRT; subject: CO[C@H]1CCCN(c2ccc(-c3cc4cc(O)ccc4[nH]3)c(F)n2)C1
18

###

- EXPERIMENT_NOTES: Mouse intravenous (IV) pharmacokinetic study of plasma and brain exposure with bioanalysis
- Type: in vivo
- CONDITION_PARAMETERS: male, NMRI, mouse, brain, iv, 1 mg/kg, brain, following IV dosing, mouse; read-out: elimination half-life (converted)
REPORTED_METRIC: half-life

Query: half-life; subject: CO[C@H]1CCCN(c2ccc(-c3cc4cc(O)ccc4[nH]3)c(F)n2)C1
~18 min

###

- EXPERIMENT_NOTES: Mouse intravenous (IV) pharmacokinetic study of plasma and brain exposure with bioanalysis
- Type: in vivo
- CONDITION_PARAMETERS: male, NMRI, mouse, brain/plasma, iv, 1 mg/kg, mouse, IV 1 mg/kg; read-out: unbound AUC in brain as % of the plasma AUC
REPORTED_METRIC: Kp

OCC1CCN(c2ccc(-c3cc4cc(O)ccc4[nH]3)c(F)n2)CC1 [Comparative Example Compound 1, reference compound] ... ~0.002

Below: the item to evaluate.
Query: Kp; subject: CO[C@H]1CCCN(c2ccc(-c3cc4cc(O)ccc4[nH]3)c(F)n2)C1 [Example Compound 1]
~0.56
